FYI, the data here is from PubChem BioAssay (NCI).

Assay: NCI Yeast Anticancer Drug Screen. Data for the mlh1 rad18 strain (AID 175)
Conditions: S. cerevisiae mlh1 rad18 strain growth inhibition; at 50.0 µM; stronger effect = higher value
The panel holds about 79,000 compounds, 15% with a hit somewhere; the sample as a whole holds those more often.
Here the recorded growth inhibition is given for each entry.
Give a bare numeral; the unit % is implied.

Here is how some compounds turned out for growth inhibition.
# COMPOUND, READOUT NAME, UNIT DESCRIPTOR, DATA VALUE
data = [
    ("Cc1ccc2c(c1-c1ccccc1)C(=O)OC2", "growth inhibition", "%", -3.3),
    ("CCOC(=O)NCC(=O)NCC(=O)NCC(N)=O", "growth inhibition", "%", 7.95),
    ("O=[N+]([O-])c1ccc(C=NC23CC4CC(CC(C4)C2)C3)cc1", "growth inhibition", "%", -3.9),
    ("CCN(CCO)CCCC(C)Nc1ccnc2cc(Cl)ccc12 (stereo unspecified)", "growth inhibition", "%", -63.4),
    ("O=C1c2ccccc2C(=O)N1CCOCCOCCOCCN1C(=O)c2ccccc2C1=O", "growth inhibition", "%", -36),
    ("CCOC(=O)c1ccc(N(N=O)C(C)C)cc1", "growth inhibition", "%", 5.15),
    ("Cc1cccc2c(N)c3cccc(C(=O)NCC[N+](C)(C)[O-])c3nc12", "growth inhibition", "%", 20.6),
    ("CC(C)(C)c1cc(-c2c3nc(c(-c4cc(C(C)(C)C)cc(C(C)(C)C)c4)c4ccc([nH]4)c(-c4cc(C(C)(C)C)cc(C(C)(C)C)c4)c4nc(c(-c5cc(C(C)(C)C)cc(C(C)(C)C)c5)c5ccc2[nH]5)C=C4)C=C3)cc(C(C)(C)C)c1", "growth inhibition", "%", 31.2),
    ("C=CCOC(=O)NC1C(OC(C)[C@@H](NC(=O)OCc2ccccc2)C(=O)OC(C)(C)C)OC(COC(C)=O)C(OC(C)=O)C1OC(C)=O (stereo partly specified)", "growth inhibition", "%", -4.15),
    ("CCc1cccc(C(C)(C)C)c1NC(=S)NC=C(C#N)C#N", "growth inhibition", "%", 45.8),
]

Exercise: Which growth inhibition is reported for this compound? "Clc1ccc(-c2cc3ccccc3[nH]2)cc1"
Key: -5.05

Exercise: Which growth inhibition is reported for this compound? "FC(F)(F)c1nc(Nc2ccccc2)c2[nH]cnc2n1"
Key: -4.6

Exercise: Which growth inhibition is reported for this compound? "COc1cccc(/C=N/N(C)c2c([N+](=O)[O-])cc(C(F)(F)F)cc2[N+](=O)[O-])c1O"
Key: -5.8

Exercise: Which growth inhibition is reported for this compound? "O=C(Cc1ccccc1)Nc1ccccc1Cl"
Key: 1.95

Exercise: Which growth inhibition is reported for this compound? "CCOC(=O)C1=NC(c2ccccc2)(c2ccccc2)OC1=C(Cl)Cl"
Key: -10.5

Exercise: Which growth inhibition is reported for this compound? "CCC1(CC)C(=O)N=C(c2ccccc2)N1C"
Key: -10.7

----------
Test: NCI Yeast Anticancer Drug Screen. Data for the mlh1 rad18 strain (AID 175)
Details: S. cerevisiae mlh1 rad18 strain growth inhibition; at 50.0 µM; stronger effect = higher value
The panel holds about 79,000 compounds, 15% with a hit somewhere; the sample as a whole holds those more often.
Here the recorded growth inhibition is given for each entry.
Give a bare numeral; the unit % is implied.

Here is how some compounds turned out for growth inhibition.
# COMPOUND, UNIT DESCRIPTOR, growth inhibition
rows = [
    ("CCCN(CCN(CC)CC)C(=O)N(CC)CC", "%", -17.6),
    ("O/N=C1\\CCCCC1C(NO)c1ccccc1 (configuration not stated)", "%", 9.35),
    ("S=C(Nc1c2c(nc3ccccc13)CCCC2)Nc1c2c(nc3ccccc13)CCCC2", "%", 12),
    ("O=C1c2ccccc2C(=O)N1Cc1ccc(CN2C(=O)c3ccccc3C2=O)cc1", "%", -11.1),
    ("O=C(NNC(=O)OCc1ccccc1)OCc1ccccc1", "%", 18.1),
    ("CN(C)c1nc(S(C)(=O)=O)nc2nc(S(C)(=O)=O)[nH]c12", "%", -17.6),
    ("Nc1ccccc1N=Cc1c(O)c2ccccc2oc1=O", "%", 8.2),
    ("CC(C)=C/C(C)=N/Nc1ccc([N+](=O)[O-])cc1[N+](=O)[O-]", "%", -0.2),
]

Exercise: Which growth inhibition is reported for this compound? CC(=O)OCC1OC(N2C(c3ccccc3)=CC(c3cccs3)C(C#N)=C2S)C(OC(C)=O)C(OC(C)=O)C1OC(C)=O (configuration not stated)
Key: 23.3

Exercise: Which growth inhibition is reported for this compound? "O=C(O)CNCCO"
Key: -0.25

Exercise: Which growth inhibition is reported for this compound? "CC(=O)N(C)N=Nc1ccc(C(F)(F)F)cc1"
Key: -4.5

Exercise: Which growth inhibition is reported for this compound? "COc1ccc(C(=O)C[n+]2cc(Br)cc3ccccc32)cc1"
Key: 54.5

----------
Assay: NCI Yeast Anticancer Drug Screen. Data for the bub3 strain (AID 167)
Conditions: S. cerevisiae bub3 mutant strain, at 50.0 µM, stronger effect = higher value
Experimental: Growth inhibition of yeast strains with defined genetic alterations is measured as a screen for potential anti-cancer activity. Selected strains with alterations in DNA damage repair or cell cycle control were exposed to compounds and growth inhibition was measured relative to vehicle treated controls. The strain used in this assay is bub3
About 79,000 compounds went through this panel and 15% of them were active in at least one assay; those are over-represented in the sample as a whole. Activity calls are given as the source filed them. Rule as the data show it: active = growth inhibition above about 70%; inactive = the rest.
READOUT NAME: growth inhibition

# MOLECULE, growth inhibition
data = [
    ("COc1cccc2c1C(=O)c1c(O)c3c(c(O)c1C2=O)CC(O)(C(C)=O)CC3O (stereo not drawn)", "34.4% (inactive)"),
]

Exercise: Which growth inhibition is reported for this molecule? "O=C1CSC(=S)N1c1ccco1"
Key: -13.1% (inactive)

Exercise: Which growth inhibition is reported for this molecule? "O=C(O)C(=O)Cc1cccc(Cl)c1[N+](=O)[O-]"
Key: -4.75% (inactive)

Exercise: Which growth inhibition is reported for this molecule? CC1OC(OC2C(OC3C[C@@]4(C)C(C[C@H](O)[C@H]5[C@H](C6(C)CCC(C(C)(C)O)O6)CCC54C)[C@]4(C)CC[C@@H](O)C(C)(C)C34)OC(CO)C(O)C2O)C(O)C(O)C1O (stereo partly drawn) (tested in a mixture with another compound)
Key: -8.5% (inactive)

Exercise: Which growth inhibition is reported for this molecule? CC1CCCC2C(=O)OC(=O)C12 (stereo not drawn)
Key: -21.1% (inactive)

Exercise: Which growth inhibition is reported for this molecule? "N#CCN1C(=O)c2ccccc2C1=O"
Key: 3.15% (inactive)

Exercise: Which growth inhibition is reported for this molecule? O=C1NC2(c3ccccc3)CCCCC2O1 (stereo not drawn)
Key: -6.35% (inactive)

Exercise: Which growth inhibition is reported for this molecule? "COC(=O)c1cocc1C(=O)OC"
Key: -15.3% (inactive)

Exercise: Which growth inhibition is reported for this molecule? O=C(O)CC1CC(=O)c2cccn21 (stereo not drawn)
Key: 0.8% (inactive)

Exercise: Which growth inhibition is reported for this molecule? "O=C(/C=C/c1ccc2c(c1)OCO2)C1CC1"
Key: 27.7% (inactive)

Exercise: Which growth inhibition is reported for this molecule? "C/C(=N\NC(=S)N1CCCCCC1)c1nccs1"
Key: -6.9% (inactive)

Exercise: Which growth inhibition is reported for this molecule? "CC1=CC(=O)/C(=C/n2c(=S)sc3ccccc32)C(=O)O1"
Key: -29.9% (inactive)

Exercise: Which growth inhibition is reported for this molecule? "Cc1ccc2nc(-c3ccc(-c4nc5ccc(C)cc5o4)c(O)c3)oc2c1"
Key: -17.2% (inactive)

----------
Assay: NCI Yeast Anticancer Drug Screen. Data for the mlh1 rad18 strain (AID 175)
Details: S. cerevisiae mlh1 rad18 strain growth inhibition; at 50.0 µM; stronger effect = higher value
About 79,000 compounds went through this panel and 15% of them were active in at least one assay; those are over-represented in the sample as a whole. Active and inactive are the calls of the source. Cut-off read from the data, not from the text of the source: active = growth inhibition above about 70%; inactive = the rest.
Here the recorded growth inhibition is given for each entry.

Exercise: Which growth inhibition is reported for this compound? "COC(=O)/C=C(\C(=O)OC)c1cc(C)c2cc(C(C)C)ccc(C)c1-2"
Key: 17.9% (inactive)

Exercise: Which growth inhibition is reported for this compound? "Fc1cccc(-c2nnc(-c3ccccc3)o2)c1"
Key: -1.65% (inactive)

Exercise: Which growth inhibition is reported for this compound? "Cc1ccc(N=Nc2ccc(C)cc2NC(=S)Nc2ccccc2)cc1"
Key: -8.75% (inactive)

Exercise: Which growth inhibition is reported for this compound? "Cc1ccc(NC(=S)N(CCC#N)C2CCCCC2)cc1"
Key: 0.85% (inactive)

Exercise: Which growth inhibition is reported for this compound? "Cc1ccc(NC(=O)c2ccc(C)c(N)c2)c(C)c1"
Key: -5.7% (inactive)
